tested_system: human EP2 receptor (Homo sapiens, UniProt P43116)
Construct: purchased Millipore
Sequence (P43116 whole entry): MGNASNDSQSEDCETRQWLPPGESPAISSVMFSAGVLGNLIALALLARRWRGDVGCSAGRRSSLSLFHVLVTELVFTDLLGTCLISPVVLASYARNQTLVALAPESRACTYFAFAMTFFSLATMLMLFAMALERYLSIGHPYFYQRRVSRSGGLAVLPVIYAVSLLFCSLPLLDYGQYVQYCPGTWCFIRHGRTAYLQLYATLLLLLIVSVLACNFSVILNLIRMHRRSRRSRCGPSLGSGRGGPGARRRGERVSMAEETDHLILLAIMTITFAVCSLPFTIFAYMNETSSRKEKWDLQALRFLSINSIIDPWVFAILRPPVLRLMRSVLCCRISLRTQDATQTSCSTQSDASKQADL
assay_text: EP2 binding assay (PGE2 displacement)
test_conditions: recombinant human EP2 membranes, 1 nanoM [3H]-PGE2; reported as range bins; read-out: EP2 binding (PGE2 displacement) pIC50 (-log IC50) (converted)
Entries and their measured IC50 follow.

Please review the following examples before continuing.
# compound, metric, result
measured = [
    ("O=C(O)COc1ccc(F)c(NC(=O)c2cc(-c3ccccc3)cc3ccccc23)c1 [Example 5]", "IC50", "1.26 to 10 nM"),
    ("O=C(O)/C=C/c1ccc(F)c(NC(=O)c2cc(-c3ccccc3F)cc3ccccc23)c1 [Example 9]", "IC50", "1.26 to 10 nM"),
    ("O=C(O)/C=C/c1ccc(F)c(NC(=O)c2cc(-c3cccc(CO)c3)cc3ccccc23)c1 [Example 14]", "IC50", "1.26 to 10 nM"),
]

Query block: GET /values?readout=IC50&item= O=C(O)COc1cccc(NC(=O)c2cc(-c3ccccc3)cc3ccccc23)c1 [Example 4]
Result block: 1.26 to 10 nM

Query block: GET /values?readout=IC50&item= O=C(O)/C=C/c1ccc(F)c(NC(=O)c2cc(N3CCCCC3)cc3ccccc23)c1 [Example 22]
Result block: 12.6 to 100 nM

Query block: GET /values?readout=IC50&item= O=C(O)/C=C/c1cccc(NC(=O)c2cc(N3CCOCC3)cc3ccccc23)c1 [Example 21]
Result block: 126 to 2000 nM

Query block: GET /values?readout=IC50&item= O=C(O)/C=C/c1cccc(NC(=O)c2cc(-c3ccccc3)cc3ccccc23)c1 [Example 1]
Result block: 1.26 to 10 nM

---

tested_system: human prostanoid receptor EP2 (Homo sapiens, UniProt P43116)
Construct: expressed in transfected cells; host or cells: CHO-K1 (CHOp6CreLuc-huEP2)
assay_text: EP2 cAMP release assay in CHOp6CreLuc-huEP2 cells (CRE-luciferase readout)
Type: cell-based
test_conditions: CHOp6CreLuc-huEP2 cells, 4 hours at 37° C.; reported as range bins; read-out: EP2 cAMP release assay pEC50 (-log EC50) (converted)
Entries and their measured EC50 follow.

# compound, metric, result
measured = [
    ("O=C(O)/C=C/c1ccc(F)c(NC(=O)c2cc(-c3ccccc3CO)cc3ccccc23)c1 [Example 13]", "EC50", "0.126 to 1 nM"),
    ("O=C(O)/C=C/c1cccc(NC(=O)c2cc(-c3cccc(N4CCNCC4)c3)cc3ccccc23)c1 [Example 20]", "EC50", "1.26 to 12.6 nM"),
    ("O=C(O)/C=C/c1cccc(NC(=O)c2cc(N3CCOCC3)cc3ccccc23)c1 [Example 21]", "EC50", "1.26 to 12.6 nM"),
    ("O=C(O)CCc1ccc(F)c(NC(=O)c2cc(-c3cccc(F)c3)cc3ccccc23)c1 [Example 17]", "EC50", "0.126 to 1 nM"),
    ("O=C(O)CCc1ccc(F)c(NC(=O)c2cc(-c3ccccc3F)cc3ccccc23)c1 [Example 16]", "EC50", "1.26 to 12.6 nM"),
    ("O=C(O)COc1ccc(F)c(NC(=O)c2cc(-c3ccccc3)cc3ccccc23)c1 [Example 5]", "EC50", "0.00631 to 0.1 nM"),
    ("O=C(O)CCc1ccc(F)c(NC(=O)c2cc(-c3ccccc3)cc3ccccc23)c1 [Example 8]", "EC50", "0.126 to 1 nM"),
    ("CC(=O)NCc1cccc(-c2cc(C(=O)Nc3cc(/C=C/C(=O)O)ccc3F)c3ccccc3c2)c1 [Example 18]", "EC50", "1.26 to 12.6 nM"),
]

Query block: GET /values?readout=EC50&item= O=C(O)/C=C/c1ccc(F)c(NC(=O)c2cc(-c3cc(O)cc(F)c3)cc3ccccc23)c1 [Example 15]
Result block: 0.00631 to 0.1 nM

Query block: GET /values?readout=EC50&item= O=C(O)/C=C/c1ccc(F)c(NC(=O)c2cc(-c3cccc(CO)c3)cc3ccccc23)c1 [Example 14]
Result block: 0.126 to 1 nM

Query block: GET /values?readout=EC50&item= O=C(O)/C=C/c1ccc(F)c(NC(=O)c2cc(-c3ccccc3F)cc3ccccc23)c1 [Example 9]
Result block: 0.00631 to 0.1 nM

Query block: GET /values?readout=EC50&item= O=C(O)/C=C/c1cccc(NC(=O)c2cc(-c3cccc(O)c3)cc3ccccc23)c1 [Example 19]
Result block: 0.00631 to 0.1 nM

Query block: GET /values?readout=EC50&item= O=C(O)/C=C/c1ccc(Cl)c(NC(=O)c2cc(-c3ccccc3)cc3ccccc23)c1 [Example 3]
Result block: 0.00631 to 0.1 nM

Query block: GET /values?readout=EC50&item= O=C(O)COc1cccc(NC(=O)c2cc(-c3ccccc3)cc3ccccc23)c1 [Example 4]
Result block: 0.126 to 1 nM

Query block: GET /values?readout=EC50&item= O=C(O)/C=C/c1ccc(F)c(NC(=O)c2cc(N3CCCCC3)cc3ccccc23)c1 [Example 22]
Result block: 0.126 to 1 nM

Query block: GET /values?readout=EC50&item= O=C(O)CCc1cccc(NC(=O)c2cc(-c3ccccc3)cc3ccccc23)c1 [Example 7]
Result block: 0.126 to 1 nM

Query block: GET /values?readout=EC50&item= O=C(O)/C=C/c1ccc(F)c(NC(=O)c2cc(-c3cccc(F)c3)cc3ccccc23)c1 [Example 10]
Result block: 0.00631 to 0.1 nM
